test: Estimated solubility in water
quantity-measured: solubility (µg/mL)
Write the number in µg/mL without appending the unit.

Ask | Item "CCO[Si](C)(C)C" has what recorded solubility?
Reply | 1000

* * *

target: trypsin (Bos taurus); assay: Trypsin-catalyzed ring opening polymerization of cyclic siloxanes; format: biochemical, bovine; parameters: purchased Sigma-Aldrich #T4665; host or cells: bovine pancreas; settings: with trypsin, 25° C., pH 7.0, 8 days, qualitative GC
quantity-measured: Cyclic Area Percent, Trimer (x = 3), Trypsin

C[Si]1(C)O[Si](C)(C)O[Si](C)(C)O1 : (100)
C[Si]1(C)O[Si](C)(C)O[Si](C)(C)O[Si](C)(C)O1 : (0.2)
C[Si]1(CCC(F)(F)F)O[Si](C)(CCC(F)(F)F)O[Si](C)(CCC(F)(F)F)O[Si](C)(CCC(F)(F)F)O1 (stereo not shown) : (0)

* * *

Target: trypsin (Bos taurus, UniProt P00760)
Sequence (P00760 24-246): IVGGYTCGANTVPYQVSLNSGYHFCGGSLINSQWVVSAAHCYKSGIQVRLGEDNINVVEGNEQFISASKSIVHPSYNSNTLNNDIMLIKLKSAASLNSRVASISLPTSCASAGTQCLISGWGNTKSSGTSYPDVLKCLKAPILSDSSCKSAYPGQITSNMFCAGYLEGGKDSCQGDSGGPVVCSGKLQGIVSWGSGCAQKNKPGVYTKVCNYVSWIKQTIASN
Test: Trypsin-catalyzed ring opening polymerization of cyclic siloxanes
Type: biochemical, bovine
Design: purchased Sigma-Aldrich #T4665; host or cells: bovine pancreas
Details: without trypsin, 25° C., pH 7.0, 8 days, qualitative GC
quantity-measured: Cyclic Area Percent, Tetramer (x = 4), Control

C[Si]1(c2ccccc2)O[Si](C)(c2ccccc2)O[Si](C)(c2ccccc2)O[Si](C)(c2ccccc2)O1 (stereo not shown) : (100)
C[Si]1(CCC(F)(F)F)O[Si](C)(CCC(F)(F)F)O[Si](C)(CCC(F)(F)F)O1 (stereo not shown) : (1.7)

* * *

target: trypsin (Bos taurus, UniProt P00760); test: Trypsin-catalyzed ring opening polymerization of cyclic siloxanes; format: biochemical, bovine; design: purchased Sigma-Aldrich #T4665; host or cells: bovine pancreas; settings: with trypsin, 25° C., pH 7.0, 8 days, qualitative GC
quantity-measured: Cyclic Area Percent, Tetramer (x = 4), Trypsin

C[Si]1(c2ccccc2)O[Si](C)(c2ccccc2)O[Si](C)(c2ccccc2)O[Si](C)(c2ccccc2)O1 (stereo not shown) : (100)
C[Si]1(CCC(F)(F)F)O[Si](C)(CCC(F)(F)F)O[Si](C)(CCC(F)(F)F)O1 (stereo not shown) : (1.9)
